- target.of.assay: Programmed cell death protein 4 (Homo sapiens, UniProt Q53EL6)
- Sequence (Q53EL6 whole entry): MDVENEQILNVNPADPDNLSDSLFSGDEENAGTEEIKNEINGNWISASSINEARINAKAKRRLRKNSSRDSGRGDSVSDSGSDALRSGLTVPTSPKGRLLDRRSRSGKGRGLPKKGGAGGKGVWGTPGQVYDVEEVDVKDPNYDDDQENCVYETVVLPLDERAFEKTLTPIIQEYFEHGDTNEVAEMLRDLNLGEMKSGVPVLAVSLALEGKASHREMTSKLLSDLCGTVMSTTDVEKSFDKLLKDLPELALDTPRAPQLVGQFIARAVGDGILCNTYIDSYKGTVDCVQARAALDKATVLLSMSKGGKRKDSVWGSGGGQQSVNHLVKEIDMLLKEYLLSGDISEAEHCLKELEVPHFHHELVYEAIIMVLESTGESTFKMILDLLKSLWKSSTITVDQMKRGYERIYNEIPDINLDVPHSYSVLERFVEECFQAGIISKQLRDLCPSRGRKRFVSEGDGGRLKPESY
- assay.summary: Inhibition of PDCD4 in human HeLa cells tranfected with pCI-neo-luciferase-PDCD4 3'-UTR plasmid assessed as increase in luciferase activity by luciferase reporter assay

{"structure.smiles": "CCOC(=O)c1nc(-c2ccc(OC)cc2)oc1C", "EC50 / nM": 2250}
